Values from the supplement of paper PMC9170038

System: K4 kissing-loop RNA reporter;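 note: bound reporter read as fluorescence of individual clusters on recovered sequencing chips by microscopy, with normalized cluster intensities fitted with a binding model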
Assay: apparent KD of K4 kissing-loop reporter; higher = weaker reporter binding
Conditions: Eterna round: R107; input ligand: theophylline 20 uM

| Item Sequence | Study System | Unit Abbreviation | apparent KD of K4 kissing-loop reporter |
| --- | --- | --- | --- |
| GCCUAGCAGGGAAGGAGCGCCAUAAGAAGUAAAGGAGGGAGUUGAGUGAUGUUCAAAAUGUGGCAGGUAGGUCGCCCUGCUAGGC [KL-SSArg B13] | K4 kissing-loop RNA reporter | nM | 490 |
| UGCUUUAUCAGAAGGAGCGCGUAAGUUAUACUAAUAAUCAGUGAUGUUGAUAUAUGAUCUUUGCAGGUAGGUCGCUGAUAUAGCU [KL-XARG-B4] | K4 kissing-loop RNA reporter | nM | 467 |
| CGUUCAUCCUAGGCGUGAGUGAUGUUUACCCGAGGACCGGUACGGCCGCCACUCGUAUGGCGAGAGUUUAGCCAUUUCCAAUAUA [theeternabot_exclusion_KL_Trp_A_17] | K4 kissing-loop RNA reporter | nM | 505 |
| UGUCAUUGGUCGGCCGCCACUUCAAGGUCAAAGACCAAAGAGUGAUGUUCUAAGACGAAAGUCAGAAGGACCGGGACCGAUGACU [TrypBS 10 #SwitchBubble #K4Middle] | K4 kissing-loop RNA reporter | nM | 223 |
| ACCUACGAUCACAAAAGUGAUUGUAGGAUCUAGGAUAUGCUGAAAAGCAGAAGGAGAGUGAUGUUCUCAACUCACGAAAGUGAGA [FmnAX 1 #OpenEnded #K4Late] | K4 kissing-loop RNA reporter | nM | 182 |
| AGAGUACGAAAGUACUCCUCUACACACUGUCGAGGACCGGUACGGCCGCCACUCGAGUUGAGUGAUGUUCGAUAGUGUGUAGAGA [Omei KL Tryp A SS C v4] | K4 kissing-loop RNA reporter | nM | 104 |

----------
Readings of apparent KD of MS2 coat protein for the listed sequences
Tested on: MS2 coat protein
Assay: apparent KD of MS2 coat protein; designed switch direction (-1 OFF switch, 1 ON switch): -1; higher = weaker reporter binding
Conditions: Eterna round: R95; input ligand: microRNA oligo, concentration not stated
Result Type: apparent KD of MS2 coat protein (nM)

| Item Sequence | Result Type | Experimental Result |
| --- | --- | --- |
| GGUCAAGGACAGAUCCGCGCUGCCCUUGACCGCUCAUUUACAUGAGGAUCACCCAUGUUUUUUGCUUGUCUUGUUAC [Erbete] (puzzle: Sensor v3, turn-off variant 2) | apparent KD of MS2 coat protein | 94 |
| UGGUAACAUGAGGAUCACCCAUGUCAGGAUAUCAUGAAGAGGAGAGGAGAGGAGAGGAUGAGAAGGGACUAUAU [Excluse me! 13 - Jieux - Exclusion 1] (puzzle: Exclusion 1) | apparent KD of MS2 coat protein | 30.4 |
| CCAUACCGAGGAUAUACAUGAGGAUCACCCAUGUCAAAACCACGUGUACGGCGGUCUUGUAGAAGGCGGAAAUA [Onbisodi] (puzzle: Exclusion 3) | apparent KD of MS2 coat protein | 9.99 |
| CUGAGCUGAGGAUAUACAUGAGGAUCACCCAUGUGGGCCUGCGAGGUUACUUGCACAUGUAGAAGGCAGUUCGG [Extended Mod of JL - ex3-3.35 Brourd mod] (puzzle: Exclusion 3) | apparent KD of MS2 coat protein | 74.4 |
| UGAUCUUUUGUUAGGAUAUGCUGGGUUUUUUCUCAGCAGAAGGGACAUGAGGAUCACCCAUGUUCUCUCUUUUU [Magic-08] (puzzle: Brourd's mod of Exclusion 4) | apparent KD of MS2 coat protein | 9.72 |
| CUUUCGUGAGGAUAUCAGUAGUAAUAAUAUAAAAUUACUACUGAGAAGGCACAUGAGGAUCACCCAUGUUCCUC [salish99_ex3_r3_101] (puzzle: Exclusion 4) | apparent KD of MS2 coat protein | 23.7 |
| ACUAUUAGAGGAUAUACAGUUUAUUACAUGAGGAUCACCCAUGUUCUUCAAUGUAUAUAAGUAGAAGGCUAAGGAA [EX-5 Malc#3] (puzzle: Exclusion 5) | apparent KD of MS2 coat protein | 45.9 |
| UAGAAAUUCAACGAGUGAAACAUGAGGAUCACCCAUGUGGUGGUAAGGAACAAGCUUUUUGCACGUACUUAUAAGAA [JR_SV3TOV1_Sub003] (puzzle: Sensor v3, turn-off variant 1) | apparent KD of MS2 coat protein | 422 |
| AAAACAGUGUAGGAUAUGGCUGGGCUGAAAAUGCUAGAAGGACACACAUGAGGAUCACCCAUGUGACUUCGUGC [Atri] (puzzle: Exclusion 6) | apparent KD of MS2 coat protein | 12.5 |

----------
System: MS2 coat protein
Experiment: apparent KD of MS2 coat protein; designed switch direction (-1 OFF switch, 1 ON switch): -1; higher = weaker reporter binding
Conditions: input ligand: FMN 200 uM
Label scheme, based on apparent KD of MS2 coat protein: lowest = under 30 nM, middle = from 30 nM up to 300 nM, highest = 300 nM and over

| Item Sequence | Classification |
| --- | --- |
| CGUAGACAUGAGGAUCACCCAUGUGAGGAUAUGCUUUUUUAUUAGAAAUGGUGGAGGAGCAGAAGGCACGUGCG [-21.6, -21.5 kcal, 28% A] (Eterna round: R97, puzzle: Exclusion 1) | middle |
| AAUUAACAUCAGGAUAUGACUAGCGAUAGCUAGUCAGAAGGGAUGACAUGAGGAUCACCCAUGUGAUCAAUUAA [E6/2-A4] (Eterna round: R97, puzzle: Exclusion 6) | highest |
| UUCCAUUCAGGAUAUCGAUGGAAUCACAUGAGGAUCACCCAUGUGAUACCUAGGUGACCGCGAGAAGGGAAAGGGU [EX5 B.7] (Eterna round: R97, puzzle: Exclusion 5) | lowest |
| AGAGUGCUGCGAGGAUAUACAUGAGGAUCACCCAUGUAAAAGUGUGAGGCUUUGCCUCACACUAUGUAGAAGGCGCAGUACUCA [Mat - Exclusion NG 2 - Mod of JL - D10] (Eterna round: R96, puzzle: Exclusion NG 2) | lowest |
| UACCUAUAGUAAGGAUAUCAUUGCGAUUAGCUAUGAGAAGGUACACAUGAGGAUCACCCAUGUCCUCCAAUUAACCGAAAGGUA [7th something] (Eterna round: R96, puzzle: Exclusion NG 1) | highest |
| ACAUGAGGAUCACCCAUGUGACAAUAAUGGCUGAUACAGAGACAGGAUAUAGGUGAAUAUCUAACCUAGAAGGGUCAUGACUGG [Deportation 71 - Jieux - Exclusion NG 3] (Eterna round: R96, puzzle: Exclusion NG 3) | middle |
| UGGGUCCAAGGAUAUACAUGAGGAUCACCCAUGUGAGAUUCGAUGCUGUGCCAAUUGUGUAGAAGGUGGCCACC [Eternabot (L2) Solution 32] (Eterna round: R97, puzzle: Exclusion 3) | middle |
| AUAGGCUGUUUUGUUCGUCACAUGAGGAUCACCCAUGUCUCGAGACUGUGCUUACGUUGCGUGUAUAGUCCGGGUAU [Eternabot (L1) Solution 5] (Eterna round: R97, puzzle: Sensor, turn-off variant 1) | middle |
| AAGAUGCGCGCAGGAUAUGGAGAGAAAGAAAGACCAGAAGGGCGGGUCACACAACAUGAGGAUCACCCAUGUGUGUGUUGCGAA [snuffleupagus] (Eterna round: R96, puzzle: Exclusion NG 1) | lowest |

----------
Readings of apparent KD of MS2 coat protein for the listed sequences
Test system: MS2 coat protein
Experiment: apparent KD of MS2 coat protein; designed switch direction (-1 OFF switch, 1 ON switch): 1; higher = weaker reporter binding
Conditions: Eterna round: R95; input ligand: FMN 200 uM

| Item Sequence | apparent KD of MS2 coat protein (nM) |
| --- | --- |
| AACCGACAUGAGGAUCACCCAUGUAAAUGCAGGGCAGGAUAUCAAUCGGGAGGCCGAAAAUGAGAAGGGCCUAAAA [Onedte] (puzzle: Same State 1) | 46.9 |
| GGUCCAGCCUGAGCUGGACAAAAGCAUGUACAUGAGGAUCACCCAUGUCAUGUACAAGCUUUUUGCUCGUCAAAAGG [Mat - hsa-mir-208a - 102] (puzzle: Sensor for hsa-mir-208a) | 54.3 |
| CGGGUACAUGAGGAUCACCCAUGUGGGAGAGAUGCAGGAUAUGUGGGAAAAGGGAAUGUAACAGAAGGGCAAGGAG [JR_SS!_Sub015] (puzzle: Same State 1) | 220 |
| AUAAAACAUGAGGAUCACCCAUGUCAACAAAGUCGAGGAUAUGGUCAAAUAAAAUAAGAACCAGAAGGCGAAUAAU [salish99_ss1_r3_029] (puzzle: Same State 1) | 17.8 |
| GUAAGUUCGAUGCUCGUCUCUCCGUACAAACAUGAGGAUCACCCAUGUGAUCGGGAAGUAGCCCGAUCAGUAUGGCC [Teonveenes] (puzzle: Sensor for hsa-mir-208a) | 34.8 |
